tested on: BRSK2; settings: concentration: 1 μM,replicates: in singlicate; n = 1;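 further: KINOMEscan kinase panel screen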
Entries and their %Inh values follow.

Would you please look over these solved cases?
Cc1ccn2nc(-c3ccc(F)cc3)c(-c3ccncc3)c2c1.Cl: 0%
O=C(Nc1ccc(Oc2ccc3nc(NC(=O)C4CC4)cn3n2)c(F)c1)c1cccn(-c2ccccc2)c1=O: 5%
Cc1ccc(C(=O)Nc2ccc(Oc3ccc4nc(NC(=O)C5CC5)cn4c3)c(F)c2)c(=O)n1-c1ccccc1: 0%

What value of %Inh has been recorded for this entry: `CN(c1cccc(CNc2nc(Nc3ccc4c(c3)CC(=O)N4)ncc2C(F)(F)F)c1)S(C)(=O)=O`
0%
